All figures here come from patent US20250296929A1.

Assay: Pharmacokinetics after 3 mg/kg IV administration, plasma
Type: in vivo, CD1 mice
Conditions: CD1, mouse, plasma, intravenous, 3 mg/kg, 4 h, mean, read-out: Mean plasma concentration
assay_metric: concentration at 4 h
Kindly report the value followed by its unit.

Prompt line: Given COc1cc2c(cc1OCCCCCCC(=O)O)C[C@@H](C(C)C)n1cc(C(=O)O)c(=O)cc1-2 [Example 6] , state its recorded concentration at 4 h.
Response line: 1.77 ng/mL

----------
Assay: Pharmacokinetics after 8 mg/kg oral (PO) administration, plasma
Assay type: in vivo, CD1 mice
Conditions: CD1, mouse, plasma, oral, 8 mg/kg, 8 mg/kg oral, 4 h, mean; read-out: Mean plasma concentration
assay_metric: concentration at 4 h (ng/mL)
Express it in ng/mL; write the number only.

Prompt line: Which concentration at 4 h reading was recorded for the compound "COc1cc2c(cc1OCCCCCCC(=O)O)C[C@@H](C(C)C)n1cc(C(=O)O)c(=O)cc1-2" ?
Response line: 3.61
